Entries and their LD50 at 24 h values follow.
EXPERIMENT_DESCRIPTION: Acute toxicity in po dosed Swiss albino mouse after 24 hrs
Assay type: organism-based
TEST_CONDITIONS: in vivo
READOUT_NAME: LD50 at 24 h

>>> print(df.to_string())
                                    compound  readout_name        result
 0  N#Cc1ccc(C[N+]2=CN3CCCCC3C2)cc1.[Br-] (stereo unspecified)  LD50 at 24 h  > 2000 mg/kg
 1  Cc1cc(C)c(C[N+]2=CN3CCCCC3C2)c(C)c1.[Br-] (stereo unspecified)  LD50 at 24 h     758 mg/kg
 2  Cc1ccc(C[N+]2=CN3CCCCC3C2)cc1.[Br-] (stereo unspecified)  LD50 at 24 h  > 2000 mg/kg
 3  CC(C)(C)c1ccc(C[N+]2=CN3CCCCC3C2)cc1.[Br-] (stereo unspecified)  LD50 at 24 h     838 mg/kg
 4  Cc1cc(C)c(C)c(C[N+]2=CN3CCCCC3C2)c1C.[Br-] (stereo unspecified)  LD50 at 24 h    1950 mg/kg
 5  Cc1c(C)c(C)c(C[N+]2=CN3CCCCC3C2)c(C)c1C.[Br-] (stereo unspecified)  LD50 at 24 h    1110 mg/kg
 6  FC(F)(F)c1ccc(C[N+]2=CN3CCCCC3C2)cc1.[Br-] (stereo unspecified)  LD50 at 24 h     824 mg/kg
 7  C1=[N+](Cc2ccccc2)CC2CCCCN12.[Br-] (stereo unspecified)  LD50 at 24 h     907 mg/kg
 8  Clc1ccc(C[N+]2=CN3CCCCC3C2)c(Cl)c1.[Br-] (stereo unspecified)  LD50 at 24 h    1890 mg/kg
 9  Clc1ccc(C[N+]2=CN3CCCCC3C2)cc1.[Br-] (stereo unspecified)  LD50 at 24 h  > 2000 mg/kg
10  Fc1c(F)c(F)c(C[N+]2=CN3CCCCC3C2)c(F)c1F.[Br-] (stereo unspecified)  LD50 at 24 h     978 mg/kg

// data source = ChEMBL document CHEMBL1795313
